pIC50 listing for selected molecules.
system_tested: human D2R/β-arrestin (Homo sapiens (Human), UniProt P14416)
Sequence (P14416 whole entry): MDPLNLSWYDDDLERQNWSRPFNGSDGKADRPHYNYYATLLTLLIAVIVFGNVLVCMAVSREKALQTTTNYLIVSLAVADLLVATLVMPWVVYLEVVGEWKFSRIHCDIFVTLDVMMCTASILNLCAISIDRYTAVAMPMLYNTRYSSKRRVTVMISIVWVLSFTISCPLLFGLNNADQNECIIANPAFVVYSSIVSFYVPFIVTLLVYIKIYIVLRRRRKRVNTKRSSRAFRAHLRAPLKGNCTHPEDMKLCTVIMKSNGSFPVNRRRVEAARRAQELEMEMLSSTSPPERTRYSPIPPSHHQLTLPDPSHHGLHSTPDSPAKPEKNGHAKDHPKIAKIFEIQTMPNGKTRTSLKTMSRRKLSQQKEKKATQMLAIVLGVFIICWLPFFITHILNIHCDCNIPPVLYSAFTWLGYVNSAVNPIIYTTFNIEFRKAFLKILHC
assay_remarks: cell-based
protocol_conditions: β-arrestin Antagonist, CHO-K1 cell line expressing human D2R/β-arrestin; quinpirole used as agonist
pIC50: −log10 of the molar value.

Below are worked cases with known answers.
INSERT INTO measurements (molecule, reported_measurement) VALUES
  ('COc1cccc(C(NC(=O)C2CCN(CCOc3cc(F)ccc3F)CC2)c2ccccn2)c1 (stereo not shown)', '5.00 to 6.00'),
  ('Fc1ccc(C(NCC2CCN(CCOc3ccccc3F)CC2)c2ccccn2)cc1 (stereo not shown)', '6.00 to 7.00'),
  ('O=C(NC(c1ccccc1)c1ccc(F)cc1)C1CCN(CCOc2ccccc2)CC1 (stereo not shown)', '> 7.00');

# input What value of pIC50 has been recorded for this entry: COc1cccc(OCCN2CCC(C(=O)NC(c3ccc(Cl)cc3)c3ccccn3)CC2)c1 (stereo not shown)
# output 5.00 to 6.00

# input What value of pIC50 has been recorded for this entry: Fc1ccccc1OCCN1CCC(CNC(c2ccc3c(c2)OCO3)c2ccccn2)CC1 (single isomer, unassigned) [Compound 139a]
# output 6.00 to 7.00

# input What value of pIC50 has been recorded for this entry: O=C(NC(c1ccc(C(F)(F)F)cc1)c1ccccn1)C1CCN(CCOc2ccccc2)CC1 (stereo not shown)
# output 5.00 to 6.00

# input What value of pIC50 has been recorded for this entry: CC1(C(=O)NC(c2ccc(Cl)cc2)c2ccccn2)CCN(CCOc2ccccc2)CC1 (single isomer, unassigned) [Compound 144b]
# output 6.00 to 7.00

# input What value of pIC50 has been recorded for this entry: `COc1ccccc1OCCN1CCC(C(=O)NCc2nccc3ccccc23)CC1`
# output 5.00 to 6.00

# input What value of pIC50 has been recorded for this entry: COc1cccc(C(NC(=O)C2CCN(CCOc3ccc(F)cc3F)CC2)c2ccccn2)c1 (single isomer, unassigned) [Compound 145b]
# output 5.00 to 6.00

* * *

pIC50 listing for selected compounds.
system_tested: human D2R/β-arrestin (Homo sapiens (Human))
protocol_conditions: read-out: β-arrestin Antagonist; CHO-K1 cell line expressing human D2R/β-arrestin; quinpirole used as agonist
pIC50: −log10 of the molar value.

Below are worked cases with known answers.
INSERT INTO assay_data (compound, measurement_label, reported_measurement) VALUES
  ('CC1(CNC(c2ccc(F)cc2)c2ccccn2)CCN(CCOc2ccccc2C(F)(F)F)CC1 (single isomer, unassigned) [Compound 101b]', 'pIC50', '6.00 to 7.00'),
  ('COc1cccc(C(c2ccccn2)N(C)CC2CCN(CCOc3ccccc3)CC2)c1 (single isomer, unassigned) [Compound 76b]', 'pIC50', '5.00 to 6.00'),
  ('c1ccc(OCCN2CCC(CNC(c3ccc4c(c3)OCO4)c3ccccn3)CC2)cc1 (single isomer, unassigned) [Compound 102b]', 'pIC50', '5.00 to 6.00'),
  ('O=C(NC(c1ccc2c(c1)OC(F)(F)O2)c1ccccn1)C1CCN(CCOc2ccc(F)cc2F)CC1 (single isomer, unassigned) [Compound 130b]', 'pIC50', '5.00 to 6.00');

# input What value of pIC50 has been recorded for this entry: Fc1ccc(C(NCC2CCN(CCOc3ccccc3)CC2)c2ccccn2)cc1 (single isomer, unassigned) [Compound 78b]
# output 5.00 to 6.00

# input What value of pIC50 has been recorded for this entry: CN(CC1CCN(CCOc2ccccc2F)CC1)C(c1ccc2c(c1)OCO2)c1ccccn1 (single isomer, unassigned) [Compound 138b]
# output 6.00 to 7.00

# input What value of pIC50 has been recorded for this entry: O=C(NC(c1cccc(OC(F)(F)F)c1)c1ccccn1)C1CCN(CCOc2ccccc2F)CC1 (single isomer, unassigned) [Compound 93b]
# output 5.00 to 6.00

# input What value of pIC50 has been recorded for this entry: CN(CC1CCN(CCOc2ccccc2)CC1)C(c1ccc(Cl)cc1)c1ccccn1 (single isomer, unassigned) [Compound 79b]
# output 5.00 to 6.00

# input What value of pIC50 has been recorded for this entry: COc1cccc(C(NC(=O)C2CCN(CCOc3ccccc3)CC2)c2ccccc2)c1 (stereo not shown)
# output 5.00 to 6.00

# input What value of pIC50 has been recorded for this entry: O=C(NC(c1ccc(Cl)cc1)c1ccccn1)C1CCN(CCOc2cccc(Cl)c2)CC1 (single isomer, unassigned)
# output 5.00 to 6.00
